Where these numbers come from: patent US20250026778A1

# subject-of-test: his-galectin-3 (Homo sapiens)
# Construct: purchased Abcam
# Sequence (P17931 whole entry): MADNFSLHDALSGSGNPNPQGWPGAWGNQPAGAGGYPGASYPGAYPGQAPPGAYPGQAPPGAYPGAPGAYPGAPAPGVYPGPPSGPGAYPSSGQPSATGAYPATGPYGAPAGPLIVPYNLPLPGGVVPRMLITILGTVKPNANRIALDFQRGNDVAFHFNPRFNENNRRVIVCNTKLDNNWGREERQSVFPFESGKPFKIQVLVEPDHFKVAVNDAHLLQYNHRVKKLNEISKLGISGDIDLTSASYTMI
# test-name: TR-FRET assay (in vitro galectin-3 binding inhibitory activity test)
# experimental-parameters: Table 2; compound at 20 μM; 60 nM his-galectin-3, 15 nM biotin-ASF; read-out: % Inhibitory activity (at 20 μM)
measure-name: inhibition at 20 µM

Recorded inhibition at 20 µM, per entry:
smiles-data	measure-name	val
O=C(N[C@@H]1CCO[C@]12O[C@H](CO)[C@H](O)[C@H](n1cc(-c3cc(F)c(F)c(F)c3)nn1)[C@H]2O)c1ccc2c(Cl)cccc2c1	inhibition at 20 µM	25 to 50%
O=C(N[C@@H]1CCO[C@]12O[C@H](CO)[C@H](O)[C@H](n1cc(-c3cc(F)c(F)c(F)c3)nn1)[C@H]2O)c1cccc(-c2cccc(F)c2)c1	inhibition at 20 µM	50 to 75%
O=C(N[C@@H]1CCO[C@]12O[C@H](CO)[C@H](O)[C@H](n1cc(-c3cc(F)c(F)c(F)c3)nn1)[C@H]2O)c1cccc2c1CCC2	inhibition at 20 µM	50 to 75%
O=C(N[C@@H]1CCO[C@]12O[C@H](CO)[C@H](O)[C@H](n1cc(-c3cc(F)c(F)c(F)c3)nn1)[C@H]2O)c1cccc2ncc(F)cc12	inhibition at 20 µM	> 75%

Please examine the following record next.
I have this molecule here, O=C(N[C@@H]1CCO[C@]12O[C@H](CO)[C@H](O)[C@H](n1cc(-c3cc(F)c(F)c(F)c3)nn1)[C@H]2O)c1c[nH]c2cccc(Cl)c12 , and I need its recorded inhibition at 20 µM.
> 75%
